# Tested on: HeLa
# Assay Details: cell viability (CellTiter-Glo) relative to median of lowest-dilution wells of all drugs (fraction); higher = more viable cells
# Applied Conditions: drug concentration (unit not stated): 1.11; genotype: control (DDX11 wild type)
Where a name gives a salt, the structure may show the parent alone.
Quantity Measured: cell viability

CC(C)C[C@H](NC(=O)[C@H](CCc1ccccc1)NC(=O)CN1CCOCC1)C(=O)N[C@@H](Cc1ccccc1)C(=O)N[C@@H](CC(C)C)C(=O)[C@@]1(C)CO1 : 0.0166
Nc1ncn([C@@H]2O[C@H](CO)[C@@H](O)[C@H]2O)c(=O)n1 : 1.05
Nc1ccn([C@@H]2O[C@H](CO)[C@@H](O)[C@@H]2O)c(=O)n1 : 0.907
O=c1cc(N2CCOCC2)oc2c(-c3cccc4c3sc3ccccc34)cccc12 : 1.02
CN1CC[C@H](c2c(O)cc(O)c3c(=O)cc(-c4ccccc4Cl)oc23)[C@H](O)C1 : 0.244

Given item COCC[n+]1c2c(n(Cc3cnccn3)c1C)C(=O)c1ccccc1C2=O [YM155 (Sepantronium bromide)] , the value recorded as its cell viability is 0.0158

cell viability in this record for O=C1c2c(O)ccc(O)c2C(=O)c2c(NCCNCCO)ccc(NCCNCCO)c21 [Mitoxantrone Hydrochloride] : 0.312

Record summary for CNC(=O)c1cccc(-c2ccc3c(N4CCOC[C@@H]4C)nc(N4CCOC[C@@H]4C)nc3n2)c1 : reported cell viability = 0.637

Looking up O=C(O)CCCc1ccc(N(CCCl)CCCl)cc1 , I see its cell viability listed as 0.999

N.N.[Cl][Pt][Cl] [Cisplatin] yielded cell viability of 0.112

Form field cell viability, entry COc1ncc(-c2ccc3nccc(-c4ccnnc4)c3c2)cc1NS(=O)(=O)c1ccc(F)cc1F : 0.416

cell viability reported for this compound Cc1sc2c(c1C)C(c1ccc(Cl)cc1)=N[C@@H](CC(=O)OC(C)(C)C)c1nnc(C)n1-2 [(+)-JQ-1] : 0.827

The compound Cc1cc(Nc2cc(N3CCN(C)CC3)nc(Sc3ccc(NC(=O)C4CC4)cc3)n2)n[nH]1 showed cell viability equal to 1.03

====

# System: HeLa
# Assay Details: cell viability (CellTiter-Glo) relative to median of lowest-dilution wells of all drugs (fraction); higher = more viable cells
# Applied Conditions: drug concentration (unit not stated): 1.11; genotype: control (DDX11 wild type)
Counter-ions that a name gives are not always drawn.
// classify: if (cell viability < 1) 1 else -1

COc1cccc2c1C(=O)c1c(O)c3c(c(O)c1C2=O)C[C@@](O)(C(=O)CO)C[C@@H]3O[C@H]1C[C@H](N)[C@@H](O)[C@H](C)O1 [Epirubicin Hydrochloride] : 1
Nc1nc(Cl)nc2c1ncn2[C@H]1C[C@H](O)[C@@H](CO)O1 : 1
O=c1[nH]cc(F)c(=O)[nH]1 : -1
C[C@@H](Nc1cc(F)cc(F)c1)c1cc(C(=O)N(C)C)cc2c(=O)cc(N3CCOCC3)oc12 : 1
Nc1nc2[nH]cnc2c(=S)[nH]1 : 1

## Input Determine if Nc1nc(F)nc2c1ncn2[C@@H]1O[C@H](COP(=O)(O)O)[C@@H](O)[C@@H]1O [Fludarabine Phosphate (Fludara)] shows cell viability strictly lower than 1.
## Output -1

## Input Is cell viability strictly under 1 for the entry COc1cccc2c1C(=O)c1c(O)c3c(c(O)c1C2=O)C[C@@](O)(C(=O)CO)C[C@@H]3O[C@H]1C[C@H](N)[C@H](O)[C@H](C)O1 ?
## Output 1

Hello, the source for this data is the supplement of paper PMC8092582, in case you need it.
